The measurements presented in this section are drawn from the nanobody polyreactivity screen of Harvey et al. (2022).

Test: yeast display, Sf9 membrane polyspecificity reagent, FACS + sequencing; frameworks hold sequencing errors
assay endpoint: polyreactivity (PSR sort gate)

1) QVQLVESGGGLVQAGGSLRLSSAASGFIFPDYAMGWYRQAPGKERELVAAISFRDGSTYYADSVKGRFTISRDNAKNTVYLQMNSLKPEDTAVYFCAVRQVNWFGIGYEDDYWGQGTQVTVSS : low polyreactivity
2) QVQLVEAGGGLVQAGGSLRLSCAASGSIFGYYAMGWYRQAPGKERELVAAISYRGGSTYYADSVKGRFTISRDNAKNTVYLQMNSLKPEDTAVYYCNAGGRRRIFAHSSTGDYWGQGTQVTVSS : high polyreactivity
3) QVQLVESGGGLVQAGGSLRLSCAASGIIVAWYAMGWYRQAPGKERELVARISSGASPNYADSVKGRFTISRDNAKNTVYLQMNSLKPEDTSVYYCAAVSHPFRRSRYDYWRQGTQVTVSS : high polyreactivity
4) QVQLVESGGGLVQAGGSLRLSCAASGSTIDYYAMGWYRQAPGKERELVAAIDWSGDSTYYADSVKGRFTISRDNAKNTVYLQMNSLKPEDTAVYYCAADLDSRGTYGRYEYWGQGTQVTVSS : low polyreactivity

# input for lookup
// `QVQLVESGGGLVQAGGSLRLSCAASGFTFTAYAMGWYRQAPGKERELVAAISYRGGRTNYAYSVKGRFTISRDNAKNTVYLQMNSLKPEDTAVYYCAARPRISTREMDYWGQGTQVTVSS` : polyreactivity (PSR sort gate) value = high polyreactivity

* * *

Assay: yeast display, Sf9 membrane polyspecificity reagent, FACS + sequencing; frameworks hold sequencing errors
assay endpoint: polyreactivity (PSR sort gate)

# count of solved cases: 4
1) QVQLVESGGGLVQAGGSLRLSCDGSGSIISAYTMEWYRQAPGKEREYVAAIRWSGDSTYYSDSVKGRFTISRDNAKNTVYLQMNSLKPEDTAVYYCAARDLWFPRYSSRYYYWGQGTQVTVSS : high polyreactivity
2) QVQLVESGGGLVQAGGSLLLSCAASGIIFSEYDMGWYRQAPGKESELVAAISKSGGRTYYADSVKVRFTISRDNAKNTGFLQMNSLKQEDTAVYYCAAGGRFRFTQYYKHYYWGQGTQVNVSS : high polyreactivity
3) QVQLVESGGGLVQAGGSLRLSCAASGSIFPYNVMGWYRQTPGKERELVADIRSDGSTTYADSVKGRFTISRDNAKNTVYLQMNSLKPEDTAVYDCAAVWTYLYSYSLWLEYDYWGQGTQVTVSS : low polyreactivity
4) QVQLVESGGGLVQAGGSLRLSCAASGSIFDFNALGWYRQAPGKERELVAAITYSGGRTYYADSVKGRFTISRDNGKYTVYLQMNSMKPEDTAVFYCAVNSFSGHGDYWGQGTQVTVSS : low polyreactivity

# input for lookup
// `QVQLVESGGGLVQAGGSLRLSCAASGLIFYKNAMAWYRQAPGKERELVAAIDWSSGSTYYADSVKGRFTISRDNAKNTVYLQMNSLIPEDTAVYYCAAEYVHHASGDFRTLYYYWGQGTQVTVSS` : polyreactivity (PSR sort gate) value = low polyreactivity

* * *

Assay: yeast display, Sf9 membrane polyspecificity reagent, FACS + sequencing; frameworks hold sequencing errors
assay endpoint: polyreactivity (PSR sort gate)

# count of solved cases: 4
1) QVQLVESGGGLVQAGGSLRLSCAASGRTFGSYAMGWYRQAPGKEREFVAGISYGGGRTYYADSVKGRFTISRDNAKNTVYLQMNSLKPEDTAVYYCAADGVYRYNYPYLYTYDYWGQGTQVTVSS : low polyreactivity
2) QVQLVESGGGLVHAGGSLRLSCAASGRTFDIYAMGWYRQAPGKERELVAAISSGGSTYYADSVKGRFRISRDNAKKTVYLQKNSLKPEDTAVYYCAVRWYDQVSRRGIGYYWGQGTQVTVSS : low polyreactivity
3) QVQLVESGGGLVQAGGSLRLSCAASGSIFGSYAMGWYTQAPGKERELVAAITRAGSTNYADSVKGRFTISRDNAKNTVYLQINSLKPEDTAVFYCAVRPGFGRSLWYGYWGQGTQVTVSS : low polyreactivity
4) QVQHVESGGGLVQAGGSLRLSCAASGYTFRYYAMGWYRQAPGKERELVARINRSGGSTYYADSVKGRFTISRDYAKYTVYLQMNSLKPEDTAVYYCNRDYGWHYSYDYWGQGTQVTVSS : high polyreactivity

// `QVQLVESGGGLVQAGGSLRLSCAASGLTFRAYVMGWYRQAPGKERELVAAISVSGGSTYYADSVKGRFTISRDNAKNTVYLQMNSLKPEDTAVYYCAAAAKSWLFDYWGQGTQVTVSS` : polyreactivity (PSR sort gate) value = high polyreactivity

* * *

Test: yeast display, Sf9 membrane polyspecificity reagent, FACS + sequencing; frameworks hold sequencing errors
assay endpoint: polyreactivity (PSR sort gate)

1) QVQLVESGGGLVQAGGSLRLSCAASGRTFPGYAMGWYRQAPGKERELVAGISYRGGSTYYADSVKGRITISRDIAKNSVYLQMISLKPEDTAVYFCARDYSRHKGDLWGQGTQVTVSS : low polyreactivity
2) QVQLVESGGGLVQAGGSLRLSCAASGRIFVYNAMGWSRQAPGKVRELVASITSSGGSTSYADSVKGRFTISRDNAKNTVYLQMNSLKPEDTAVYSCAADVQPDTRSTPEMDYWGQGTQVTVSS : low polyreactivity
3) QVQHVESGGGLVQAGGSLRLSCAPSGSIFRPYAMGWSRQAPGKEMELVAAISFSGAGTYYADSVKGRFTISRDNAKNTVYLQMNSLTPEDTAVYYCNARRYTTYWLLYEYDYWGQGTQVTVSS : low polyreactivity

* * *

Assay: yeast display, Sf9 membrane polyspecificity reagent, FACS + sequencing; frameworks hold sequencing errors
assay endpoint: polyreactivity (PSR sort gate)

# count of solved cases: 5
1) QVQLVESGGGLVQAGGSLRLTCAASGFTFPSYPMVWYRQAPGKERELVAAITRSGVRTYYADSVKGRFTISRDNAKNTVYFQMNSLKPEDTAVYYCAAVYPRQVSQVWRDDFWGQGTQVTVSS : high polyreactivity
2) QFQLVESGGVLDQAGCSLRLSCAASGYTFYANAMGWYRQAPGKEREFVASIPWSGGSTYYADSVKGRFTISRDNAKNTVYLQMNSLKPEDTAVYYCAAESWFKYDYWGQGTQVTVSS : low polyreactivity
3) QVQLVESGGGLVQAGGSLRLSCAASGSILWQYAIGRYRQAPGKEMELVAAINQRGGSTYYADSVKGRFTISRDYAKNTVYLQMNSLKPEDTAVYYCNTYPTRTYPSYYYWGQGTQVTVSS : high polyreactivity
4) QVQLVESGGGLVQAGGSLRLSCAASGSNMGDNGMGWYRKAPGKERELVAAITNGGSTTYADSVKGRFTISRDNAKNTVYLQMNSLKPEDTAVYYCAADQQDRDQYSDWTEYDYWGQGTQVTVSS : low polyreactivity
5) QVQLVESGGGLVQAGGSLRLSCAASGLTIYHYAMGWYRQAPGKERELVAAISWNGGSTYYADSVKGRFTFSRDNAKNTVYLQMNSLKPEDTAVYYCAVVFNPHRYTGVLAGYDYWGQGTQVTVSS : high polyreactivity

// `QVQLVESGGGLVQAGGSLRLSCAASGSIFSSNAMGWYRPAPGKERELVAAISWNGGRTYYADSVKGRFTISRDNAKNTVYLQMNSLKPEDTAVYYCATRFYRPRDGLYDYWGQGTQVTVSS` : polyreactivity (PSR sort gate) value = high polyreactivity

// `QVQLVESGGGLVQAGGSLRLSCAASGSTFKAYAMGWYRQAPGKERELVAAITNSDGDTYYADSVKGRFTISRDNAKNTVYLLMNSLKPEDTAVYYFNADDALRQTSDYNYWGQGTQVTVSS` : polyreactivity (PSR sort gate) value = low polyreactivity

// `QVQLVESGGGLVQAGGSLRLSCAASGITFYWNDMGWYRQATGKERELVAAIRRTAGSTYYADSVKGRFTISRDNAKNTVYLQMNSLKPEDTAVYYCAASRHFARHRGYYFRYDYWGQGTQVTVSS` : polyreactivity (PSR sort gate) value = high polyreactivity

// `QVQLVESGGGLVQAGGSLRLSCAASGRTFSVNAMGWYRPAPGKERELVAAISWDGGSTYYADSVKGRFTISRDNAKNTVYLQMNSLKPEDTAVYYCNKDLYYAYDYWGQGTQVTVSS` : polyreactivity (PSR sort gate) value = low polyreactivity

// `QVQLVESGGGLVNAGGSLRLSCAASGRTFRNYAMGWYRQAPGKERELVAANSSGGSTNYADSVKGRFTISRDNAKNTVYLQMNSLKPEDTAVYFCAARQRAYYGPGFDYWGQGTQVTVSS` : polyreactivity (PSR sort gate) value = low polyreactivity

// `QVQLVESGGGLVQAGGSLRLSCAASGRTSSSNAMGWYRQAPGKERELVATISRTGSTYYADSVKGRFTISRDNAKNTVYLQMNSLKPEDTAVYYCNRYFSEALLHGSSYNRYYYWGQGTQVTVSS` : polyreactivity (PSR sort gate) value = low polyreactivity
